Give measured log10 of koff for each item. Keep answers brief.
target-of-assay: T1, hK1 (human tissue kallikrein 1), recombinant (human, UniProt P06870 25-262)
T1 construct: Expressed in P. pastoris from KLK1 cDNA and purified; enzymatically active; also called KLK1; Recombinant (Pichia) Kallikrein
experiment-notes: SPR
// do not treat as linear: log10 of koff, unit s⁻¹

The following binders have reported results that may help.
[[record]]
binder = "M0138-E02 (Fab, V domains shown) VH: EVQLLESGGGLVQPGGSLRLSCAASGFTFSHYMMHWVRQAPGKGLEWVSGIGPSGGKTPYADSVKGRFTISRDNSKNTLYLQMNSLRAEDTAVYYCARVGVWYGMDVWGQGTTVTVSS VL: DIQMTQSPSSVSASVGDRVTITCRASQGISSWLVWYQQKPGKAPKLLIYAASSLQSGVPSRFSGSGSGTDFTLTISSLQPEDFATYYCQQAKTFPLTFGGGTKVEIKR"
parameter_measured = "log10 of koff"
recorded_value = -2.86

[[record]]
binder = "M0105-F02 (Fab, V domains shown) VH: EVQLLESGGGLVQPGGSLRLSCAASGFTFSRYWMAWVRQAPGKGLEWVSSIGPSGGSTKYADSVKGRFTISRDNSKNTLYLQMNSLRAEDTAVYYCARTARWLSFDYWGQGTLVTVSS VL: DIQMTQSPSTLSASVGDRVTITCRASQSISSWLAWYQQKPGEAPKLLIYAASSLRNGVPSRFIGSGSGTDFTLTISSLQPEDFATYYCQQSYSTPPTFGGGTKVEIKR"
parameter_measured = "log10 of koff"
recorded_value = -1.99

[[record]]
binder = "M0122-G06 (Fab, V domains shown) VH: EVQLLESGGGLVQPGGSLRLSCAASGFTFSWYAMHWVRQAPGKGLEWVSVISPSGGATRYADSVKGRFTISRDNSKNTLYLQMNSLRAEDTAVYYCVRASTVTTLFQHWGQGTLVTVSS VL: AQSALTQPASVSGSPGQSITISCTGTSSDVGGYNYVSWYQQHPGKAPKLMIYDVSKRPSGVSNRFSGSKSGNTASLTISGLQAEDEADYYCSSYTSSITLVVFGGGTKLTVLS"
parameter_measured = "log10 of koff"
recorded_value = -0.97

[[record]]
binder = "M0108-D11 (Fab, V domains shown) VH: EVQLLESGGGLVQPGGSLRLSCAASGFTFSWYVMTWVRQAPGKGLEWVSVIYPSGGATKYADSVKGRFTISRDNSKNTLYLQMNSLRAEDTAVYYCARRGAGGMDVWGQGTTVTVSS VL: AQSVLTQPASVSGSPGQSITISCTGTNTDVGGYNLVSWYQQHPGKAPKLIIYEVSNRPSGVSNRFSGSKSGNTASLTISGLQAEDEVDYYCGSYTSSSTHVFGSGTKVTVLG"
parameter_measured = "log10 of koff"
recorded_value = -3.16

[[record]]
binder = "M0103-A03 (Fab, V domains shown) VH: EVQLLESGGGLVQPGGSLRLSCAASGFTFSHYPMSWVRQAPGKGLEWVSYIRSGGYTTYADSVKGRFTISRDNSKNTLYLQMNSLRAEDTAVYYCARERVFCSGGRCGSYFDYWGQGTLVTVSS VL: DIQMTQSPSSVSASVGDRVTITCRASQDVRRFLAWYQQKPGKAPKLLIYAASSLQSGVPSRFSGSGSGTDFTLTISSLQPEDFATYYCQQANSFPITFGQGTRLEIKR"
parameter_measured = "log10 of koff"
recorded_value = -2.01


Respectfully, I request log10 of koff for each entry included below.
1. M0139-F04 (Fab, V domains shown) VH: EVQLLESGGGLVQPGGSLRLSCAASGFTFSRYYMEWVRQAPGKGLEWVSSISSSGGSTEYADSVKGRFTISRDNSKNTLYLQMNSLRAEDTAVYYCAKDITPGGGSGFRLPKNYYYYGMDVWGQGTTVTVSS VL: DIQMTQSPSSLSASVGDRVTITCRASQAISTNLNWYQQKPGKAPKLLIYAASSLQSGVPSRFIGSGSGTDFTLTISSLHPEDFATYHCQQTFSPPHTFGQGTKVEIQR
2. M0130-B02 (Fab, V domains shown) VH: EVQLLESGGGLVQPGGSLRLSCAASGFTFSNYSMVWVRQAPGKGLEWVSRIYSSGGSTHYADSVKGRFTISRDNSKNTLYLQMNSLRAEDTAVYYCARVGVWYGMDVWGQGTTVTVSS VL: AQSALTQPASVSGSPGQSITISCTDTSGNVGSYNLVSWYQQHPDKAPKLMIFEVSRRPSGVSDRFSGSKSGNTASLTISGLQAEDEADYYCCSYAGSNTYVFGTGTKVTVLG
3. M0117-B07 (Fab, V domains shown) VH: EVQLLESGGGLVQPGGSLRLSCAASGFTFSHYTMWWVRQAPGKGLEWVSRIWPSGGTTRYADSVKGRFTISRDNSKNTLYLQMNSLRAEDTAVYYCARGGSYLAFDIWGQGTMVTVSS VL: DIQMTQSPATLSLSPGERATLSCRASQSVSSYLAWYQQKPGQAPRLLIYDASNRATGIPARFSGSGSGTDFTLTISSLEPEDFAVYYCQQRSNFGGGTKVEIKR
4. M0116-C09 (Fab, V domains shown) VH: EVQLLESGGGLVQPGGSLRLSCAASGFTFSNYKMHWVRQAPGKGLEWVSSIYPSGGWTVYADSVKGRFTISRDNSKNTLYLQMNSLRAEDTAVYYCATGYSSTWGAFDIWGQGTMVTVSS VL: AQSALTQPPSVSVSPGQTASITCFGDKLGDKYGSWYQQKPGQSPVLVLYQYWKRPSGIPERFSGSNSGNTATLTINVTQTMDEADYYCQAWDSNTVVFGGGTKLTVLG
5. M0106-C06 (Fab, V domains shown) VH: EVQLLESGGGLVQPGGSLRLSCAASGFTFSHYTMQWVRQAPGKGLEWVSSIYPSGGATKYADSVKGRFTISRDNSKNTLYLQMNSLRAEDTAMYYCARSGYYYGLDVWGQGTTVTVSS VL: DIQMTQSPATLSASVGDRVTITCRASQSVSRWLAWYQQKPGKAPKLLIYKASTLESGVPSRFSGSGSGTEFTLTISSLQPDDFATYYCQQYGAFGQGTKVEIRR

// result
-2.87
-2.51
-2.08
-2.02
-1.85
